# Protocol summary: Solubility of crystalline forms in fasted-state simulated intestinal fluid (FaSSIF)
# Type: physicochemical
# Test settings: fasted-state simulated intestinal fluid (FaSSIF), thermodynamic from solid, equilibrium 4 hr
Reported property: solubility at 4 h (µg/mL)
Give the value in µg/mL but do not write µg/mL after it.

Ask: For the compound CC(C)c1nc2cc(O)ccc2c(=O)n1-c1ccc(C#N)cc1 [Form Z] , report solubility at 4 h.
Reply: 56.1

---

# Protocol summary: Solubility of crystalline forms in simulated gastric fluid (SGF)
# Type: physicochemical
# Test settings: simulated gastric fluid (SGF), simulated gastric fluid, thermodynamic from solid, equilibrium 2 hr
Reported property: solubility at 2 h
Report as: number unit

Ask: For the molecule CC(C)c1nc2cc(O)ccc2c(=O)n1-c1ccc(C#N)cc1 [Form B, reference compound] , report solubility at 2 h.
Reply: 0.0752 mg/mL
